Values of IC50 reported for HCV NS5B polymerase (Hepatitis C virus genotype 1b, UniProt P26663) appear below.

Provide IC50 for all items below, preserving their order.
1. CC(C)CCn1nc(-c2cccs2)c(O)c(C2=Nc3ccc(N(C(=O)OC(C)C)S(C)(=O)=O)cc3S(=O)(=O)N2)c1=O
2. CCC(C)(C)c1nn(CCC(C)C)c(=O)c(C2=NS(=O)(=O)c3cc(NS(C)(=O)=O)ccc3N2)c1O
3. CC(C)CCn1nc(-c2cccs2)c(OCOC(=O)C(C)(C)C)c(C2=Nc3ccc(N(C)S(C)(=O)=O)cc3S(=O)(=O)N2)c1=O
4. CC(C)S(=O)(=O)Nc1ccc2c(c1)S(=O)(=O)NC(c1c(O)c(-c3cccs3)nn(CCC3CC3)c1=O)=N2
5. CS(=O)(=O)Nc1ccc2c(c1)S(=O)(=O)NC(c1c(O)c(-c3ccsc3)nn(CCC3CC3)c1=O)=N2

# output
["100 to 1000 nM", "100 to 1000 nM", "1000 to 10000 nM", "< 100 nM", "< 100 nM"]

Would you mind giving IC50 for every molecule in the list below?
1. CS(=O)(=O)Nc1ccc2c(c1)S(=O)(=O)NC(c1c(O)c(-c3cncs3)nn(Cc3ccc(F)cc3)c1=O)=N2
2. CS(=O)(=O)Nc1ccc2c(c1)S(=O)(=O)N=C(c1c(O)c(-c3cccs3)nn(Cc3ccsc3)c1=O)N2
3. CS(=O)(=O)Nc1ccc2c(c1)S(=O)(=O)N=C(c1c(O)c(-c3cccs3)nn(CCC3CC3)c1=O)N2

# output
1: < 100 nM; 2: < 100 nM; 3: < 100 nM
